- subject.of.test: Muscarinic acetylcholine receptor (Rattus norvegicus) (UniProt P08482+P08483+P08485+P08911+P10980)
- assay: Binding affinity towards muscarinic receptor using [3H]quinuclidinyl benzilate (QNB) to label antagonist sites in membrane preparations from rat neocortex at 100 nM
The entries below come with measured inhibition values attached.
Just the number in %, nothing appended.

Solved cases below.
| compound | display.unit | inhibition |
| --- | --- | --- |
| Cc1ccccc1C#CCO/N=C1\CN2CCC1C2 (centres undefined) | % | 56 |
| Clc1cc(Cl)cc(C#CCO/N=C2\CN3CCC2C3)c1 (centres undefined) | % | 18 |
| C(#Cc1ccc2c(c1)OCCO2)CO/N=C1\CN2CCC1C2 (centres undefined) | % | 0 |

# context switch: different compound, same inhibition
Output measured inhibition for this item: FC(F)(F)c1cc(C#CCO/N=C2\CN3CCC2C3)cc(C(F)(F)F)c1 (centres undefined)
18

====

Below: a set of entries, each annotated with reported Ratio.
- subject.of.test: Muscarinic acetylcholine receptor (Rattus norvegicus) (UniProt P08482+P08483+P08485+P08911+P10980)
- assay: Ratio of QNB/CMD binding affinities to predict agonistic efficacy at muscarinic receptor
- Assay type: protein assay
Would you mind answering with just the numeric figure?

Example results:
| molecule | result.type | quantitative.readout |
| --- | --- | --- |
| Fc1ccccc1C#CCO/N=C1\CN2CCC1C2 (stereo unspecified) | Ratio | 159 |
| COc1cccc(C#CCO/N=C2\CN3CCC2C3)c1 (stereo unspecified) | Ratio | 250 |
| FC(F)(F)c1cccc(C#CCO/N=C2\CN3CCC2C3)c1 (stereo unspecified) | Ratio | 134 |
| O=[N+]([O-])c1cccc(C#CCO/N=C2\CN3CCC2C3)c1 (stereo unspecified) | Ratio | 226 |
| Cc1ccc(C#CCO/N=C2\CN3CCC2C3)cc1 (stereo unspecified) | Ratio | 125 |

Next item in the queue.
For the molecule Cc1cccc(C#CCO/N=C2\CN3CCC2C3)c1 (stereo unspecified) , give its reported Ratio.
186

====

- subject.of.test: Muscarinic acetylcholine receptor
- assay: Binding affinity towards muscarinic receptor using [3H]cis-methyldioxolane (CMD) to label agonist sites in membrane preparations from rat neocortex
- Assay type: tissue-based
Classify: criterion met when IC50 is strictly less than 30 nM; criterion not met when IC50 is not.

Sample answers from the record:
| compound | answer.label |
| --- | --- |
| Clc1cccc(C#CCO/N=C2\CN3CCC2C3)c1 (stereo not drawn) | criterion met |
| Cc1cccc(C#CCO/N=C2\CN3CCC2C3)c1 (stereo not drawn) | criterion met |
| O=[N+]([O-])c1cccc(C#CCO/N=C2\CN3CCC2C3)c1 (stereo not drawn) | criterion met |

Problem: For the compound C(#Cc1ccccc1)CO/N=C1\CN2CCC1C2 (stereo not drawn) , is IC50 under 30 nM?
criterion not met

I wonder whether COc1cccc(C#CCO/N=C2\CN3CCC2C3)c1 (stereo not drawn) has IC50 below 30 nM. Can you tell?
criterion met

Field: below-cutoff. Rule: recorded IC50 strictly less than 30 nM. Subject: Fc1cccc(C#CCO/N=C2\CN3CCC2C3)c1 (stereo not drawn)
criterion not met

====

- subject.of.test: Muscarinic acetylcholine receptor (Rattus norvegicus) (UniProt P08482+P08483+P08485+P08911+P10980)
- assay: Ratio of QNB/CMD binding affinities to predict agonistic efficacy at muscarinic receptor
- Type: protein assay
result.type: Ratio
Would you mind answering with just the numeric figure?

Study these solved cases before continuing.
| compound | Ratio |
| --- | --- |
| Clc1ccc(C#CCO/N=C2\CN3CCC2C3)cc1 (stereo not given) | 119 |
| Fc1cccc(C#CCO/N=C2\CN3CCC2C3)c1 (stereo not given) | 132 |

Note Ratio for the compound shown: COc1ccccc1C#CCO/N=C1\CN2CCC1C2 (stereo not given)
81

Report Ratio, nothing else, for this compound: COc1ccc(C#CCO/N=C2\CN3CCC2C3)cc1 (stereo not given)
119

Look up and state reported Ratio for C(#Cc1ccccc1)CO/N=C1\CN2CCC1C2 (stereo not given)
109

Report measured Ratio; entry is Fc1ccc(C#CCO/N=C2\CN3CCC2C3)cc1 (stereo not given)
204

Find the measured Ratio of Clc1ccccc1C#CCO/N=C1\CN2CCC1C2 (stereo not given) and report it.
107

Quickly give me recorded Ratio for Clc1cccc(C#CCO/N=C2\CN3CCC2C3)c1 (stereo not given)
202

Give Ratio for the following compound: C(#Cc1ccc2c(c1)OCO2)CO/N=C1\CN2CCC1C2 (stereo not given)
110

Using known records, supply Ratio for COc1ccc(C#CCO/N=C2\CN3CCC2C3)cc1OC (stereo not given)
303

====

- subject.of.test: Muscarinic acetylcholine receptor
- assay: Binding affinity towards muscarinic receptor using [3H]quinuclidinyl benzilate (QNB) to label antagonist sites in membrane preparations from rat neocortex
result.type: IC50 (µM)
Respond with the bare value in µM.

Example entries begin here.
| molecule | display.unit | IC50 |
| --- | --- | --- |
| C(#Cc1ccc2c(c1)OCO2)CO/N=C1\CN2CCC1C2 (configuration not stated) | µM | 2.547 |
| COc1ccccc1C#CCO/N=C1\CN2CCC1C2 (configuration not stated) | µM | 17.658 |
| Fc1cccc(C#CCO/N=C2\CN3CCC2C3)c1 (configuration not stated) | µM | 4.925 |

Write down IC50 measured for item COc1cccc(C#CCO/N=C2\CN3CCC2C3)c1 (configuration not stated)
6.927

Give the measured IC50 for Cc1ccc(C#CCO/N=C2\CN3CCC2C3)cc1 (configuration not stated)
11.089

Quickly give me recorded IC50 for Cc1cccc(C#CCO/N=C2\CN3CCC2C3)c1 (configuration not stated)
5.195

Answer with the recorded IC50 of Clc1ccccc1C#CCO/N=C1\CN2CCC1C2 (configuration not stated) only.
1.305

====

- subject.of.test: Muscarinic acetylcholine receptor
- assay: Binding affinity towards muscarinic receptor using [3H]cis-methyldioxolane (CMD) to label agonist sites in membrane preparations from rat neocortex
- Assay type: tissue-based
Label Condition met when IC50 < 50 nM; otherwise Condition not met.

Use the examples below as a reference point.
| molecule | answer.label |
| --- | --- |
| COc1ccc(C#CCO/N=C2\CN3CCC2C3)cc1 (configuration not stated) | Condition not met |
| COc1ccc(C#CCO/N=C2\CN3CCC2C3)cc1OC (configuration not stated) | Condition not met |
| Fc1ccc(C#CCO/N=C2\CN3CCC2C3)cc1 (configuration not stated) | Condition met |
| FC(F)(F)c1cccc(C#CCO/N=C2\CN3CCC2C3)c1 (configuration not stated) | Condition met |
| Fc1ccccc1C#CCO/N=C1\CN2CCC1C2 (configuration not stated) | Condition met |

Is IC50 strictly under 50 nM for the entry Clc1ccc(C#CCO/N=C2\CN3CCC2C3)cc1 (configuration not stated) ?
Condition not met

Identify whether the molecule C(#Cc1ccc2c(c1)OCO2)CO/N=C1\CN2CCC1C2 (configuration not stated) records IC50 below 50 nM.
Condition met

Value source: ChEMBL document CHEMBL1128858
